target: T1, human serum albumin (HSA), full length (human, UniProt P02768 25-609); test: SPR off-rate ratio to parent ADX_7016_A01, HSA, 25 C
T1 construct: mature; Immobilized on CM5 chip (SPR) or coated on plates (ELISA)
T1 sequence (P02768 25-609): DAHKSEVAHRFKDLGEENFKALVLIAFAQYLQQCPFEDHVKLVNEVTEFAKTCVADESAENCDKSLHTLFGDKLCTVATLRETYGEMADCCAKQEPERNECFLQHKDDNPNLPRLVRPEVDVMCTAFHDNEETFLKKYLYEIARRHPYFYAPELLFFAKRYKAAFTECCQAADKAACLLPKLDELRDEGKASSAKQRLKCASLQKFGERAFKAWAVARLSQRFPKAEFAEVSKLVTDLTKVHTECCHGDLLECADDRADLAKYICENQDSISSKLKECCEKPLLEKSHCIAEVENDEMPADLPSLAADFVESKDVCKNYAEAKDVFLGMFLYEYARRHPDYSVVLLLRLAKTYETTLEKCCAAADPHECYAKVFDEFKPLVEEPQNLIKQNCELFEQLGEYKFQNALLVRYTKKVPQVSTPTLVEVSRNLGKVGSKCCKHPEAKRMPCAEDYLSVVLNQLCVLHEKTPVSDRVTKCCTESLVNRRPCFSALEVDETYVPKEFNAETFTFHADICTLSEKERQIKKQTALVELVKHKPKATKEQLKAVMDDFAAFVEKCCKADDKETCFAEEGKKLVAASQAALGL
value kind: HSA kd/Parent kd
Enter a number only.

Some binders with recorded HSA kd/Parent kd:
ADX_6727_F04 (Y44A/K85A) (designed binder, Full His6-tagged entry) MGVSDVPRDLEVVAATPTSLLISWDAPAVTVRYYRITYGREVQKYSDLGPLYIAQEFTVPGSKSTATISGLKPGVDYTITVYAVTGSGESPASSAPISINYRTEIDKPSQHHHHHH ... 23
ADX_6727_D10 (Q33D/K85T) (designed binder, Full His6-tagged entry) MGVSDVPRDLEVVAATPTSLLISWDAPAVTVRYYRITYGREVDKYSDLGPLYIYQEFTVPGSKSTATISGLKPGVDYTITVYAVTGSGESPASSTPISINYRTEIDKPSQHHHHHH ... 50

Look at this binder and give its reported HSA kd/Parent kd. ADX_6727_B09 (L38T/K85T) (designed binder, Full His6-tagged entry) MGVSDVPRDLEVVAATPTSLLISWDAPAVTVRYYRITYGREVQKYSDTGPLYIYQEFTVPGSKSTATISGLKPGVDYTITVYAVTGSGESPASSTPISINYRTEIDKPSQHHHHHH
34

Item: ADX_6727_C01 (K85A) (designed binder, Full His6-tagged entry) MGVSDVPRDLEVVAATPTSLLISWDAPAVTVRYYRITYGREVQKYSDLGPLYIYQEFTVPGSKSTATISGLKPGVDYTITVYAVTGSGESPASSAPISINYRTEIDKPSQHHHHHH
1.1

Also check ADX_6727_G10 (Y35S/K85A) (designed binder, Full His6-tagged entry) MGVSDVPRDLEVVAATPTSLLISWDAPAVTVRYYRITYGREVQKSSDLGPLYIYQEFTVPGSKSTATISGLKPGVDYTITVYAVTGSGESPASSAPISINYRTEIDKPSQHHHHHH
3.3

Again, but for ADX_6727_D01 (K85T) (designed binder, Full His6-tagged entry) MGVSDVPRDLEVVAATPTSLLISWDAPAVTVRYYRITYGREVQKYSDLGPLYIYQEFTVPGSKSTATISGLKPGVDYTITVYAVTGSGESPASSTPISINYRTEIDKPSQHHHHHH
1

Record: ADX_6727_D02 (R30N) (designed binder, Full His6-tagged entry) MGVSDVPRDLEVVAATPTSLLISWDAPAVTVRYYRITYGNEVQKYSDLGPLYIYQEFTVPGSKSTATISGLKPGVDYTITVYAVTGSGESPASSKPISINYRTEIDKPSQHHHHHH
5

Check ADX_6727_G05 (I43S/K85A) (designed binder, Full His6-tagged entry) MGVSDVPRDLEVVAATPTSLLISWDAPAVTVRYYRITYGREVQKYSDLGPLYSYQEFTVPGSKSTATISGLKPGVDYTITVYAVTGSGESPASSAPISINYRTEIDKPSQHHHHHH too.
53
